tested on: S. cerevisiae GRE-lacZ reporter, Hsp90 function, luminescence; assay: loss of Hsp90-dependent reporter luminescence – S. cerevisiae, mechanism study for C. albicans Hsp90 inhibitor project, SAR follow-up (AID 434938)
Results filed as inconclusive are left out. The source made the active and inactive calls.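 The calls were made as follows: active = EC50 no greater than ten times the top concentration tested; inconclusive = flat fit with inhibition between 30% and 70%, or an invalid poor-quality fit; inactive = EC50 beyond ten times the top concentration.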
Could you please pick one outcome from this set? active, inactive

Before answering, review these 8 worked examples.
>>> print(df.to_string())
                                   compound  classification
0   CCc1ccc2c(c1)/C(=C/C(=O)c1cccs1)C(=O)N2          active
1  Cc1oc2c(F)c(F)c(F)c(F)c2c1S(=O)(=O)Nc1cccc(C(F)(F)F)c1          active
2  CCCC(=O)NC(c1ccccc1)c1ccc2cccnc2c1O (centres undefined)        inactive
3        CCOC(=O)c1c(-c2ccccc2Cl)cn2ccccc12          active
4       O=C(Nc1nc(-c2ccccn2)cs1)c1ccc(Br)s1          active
5      Cc1ccc(/C=C/C(=O)c2ccccc(=O)c2O)cc1C          active
6          O=C(Nc1nnc(CCc2ccccc2)s1)c1ccco1        inactive
7  Clc1ccc2c(c1)C(c1cccs1)=NNC(c1cccnc1)=N2          active

Outcome? `CC(C)COCc1ccc(O)c2ncccc12`
inactive

Outcome? `O=C(Oc1c(Cl)cc(Cl)c2cccnc12)c1cccs1`
active

Outcome? `O=C(Nc1nnc(SCc2ccc(Cl)cc2)s1)c1ccc2ccccc2n1`
inactive

Outcome? `O=c1c2cc(Br)ccc2nc(-c2cccc(C(F)(F)F)c2)n1O`
active

Outcome? `Cc1ccc(C(=O)c2coc3c2C(=O)C(=O)c2ccccc2-3)cc1`
active

Outcome? `COc1ccc(-c2nnc(NC(=O)c3ccc(F)cc3)o2)cc1`
inactive

Outcome? `Cc1ccc(C(=O)Nc2cccc(-c3cn4ccccc4n3)c2)cc1`
inactive

Outcome? `O=C(Nc1nnc(-c2ccc3c(c2)CCCC3)o1)c1ccc(Cl)cc1Cl`
active

Outcome? `COc1ccc(-n2nc(C(=O)NCC(=O)N3CCN(c4ccccc4)CC3)c3ccccc3c2=O)c(OC)c1`
inactive

Outcome? `O=C(Nc1sc2c(c1C(=O)c1ccc(Cl)cc1)CCCC2)c1cccnc1`
active

Outcome? `Cc1ccc(Nc2nc(N)c([N+](=O)[O-])c(N3CCC(C)CC3)n2)cc1C`
active
